molecular target: UniProt:Q12809; experiment: hERG binding assay (automated patch clamp, CHO cells); format: cell-based; conditions: CHO cell line, Nanion Syncropatch 384PE
Sequence (Q12809 whole entry): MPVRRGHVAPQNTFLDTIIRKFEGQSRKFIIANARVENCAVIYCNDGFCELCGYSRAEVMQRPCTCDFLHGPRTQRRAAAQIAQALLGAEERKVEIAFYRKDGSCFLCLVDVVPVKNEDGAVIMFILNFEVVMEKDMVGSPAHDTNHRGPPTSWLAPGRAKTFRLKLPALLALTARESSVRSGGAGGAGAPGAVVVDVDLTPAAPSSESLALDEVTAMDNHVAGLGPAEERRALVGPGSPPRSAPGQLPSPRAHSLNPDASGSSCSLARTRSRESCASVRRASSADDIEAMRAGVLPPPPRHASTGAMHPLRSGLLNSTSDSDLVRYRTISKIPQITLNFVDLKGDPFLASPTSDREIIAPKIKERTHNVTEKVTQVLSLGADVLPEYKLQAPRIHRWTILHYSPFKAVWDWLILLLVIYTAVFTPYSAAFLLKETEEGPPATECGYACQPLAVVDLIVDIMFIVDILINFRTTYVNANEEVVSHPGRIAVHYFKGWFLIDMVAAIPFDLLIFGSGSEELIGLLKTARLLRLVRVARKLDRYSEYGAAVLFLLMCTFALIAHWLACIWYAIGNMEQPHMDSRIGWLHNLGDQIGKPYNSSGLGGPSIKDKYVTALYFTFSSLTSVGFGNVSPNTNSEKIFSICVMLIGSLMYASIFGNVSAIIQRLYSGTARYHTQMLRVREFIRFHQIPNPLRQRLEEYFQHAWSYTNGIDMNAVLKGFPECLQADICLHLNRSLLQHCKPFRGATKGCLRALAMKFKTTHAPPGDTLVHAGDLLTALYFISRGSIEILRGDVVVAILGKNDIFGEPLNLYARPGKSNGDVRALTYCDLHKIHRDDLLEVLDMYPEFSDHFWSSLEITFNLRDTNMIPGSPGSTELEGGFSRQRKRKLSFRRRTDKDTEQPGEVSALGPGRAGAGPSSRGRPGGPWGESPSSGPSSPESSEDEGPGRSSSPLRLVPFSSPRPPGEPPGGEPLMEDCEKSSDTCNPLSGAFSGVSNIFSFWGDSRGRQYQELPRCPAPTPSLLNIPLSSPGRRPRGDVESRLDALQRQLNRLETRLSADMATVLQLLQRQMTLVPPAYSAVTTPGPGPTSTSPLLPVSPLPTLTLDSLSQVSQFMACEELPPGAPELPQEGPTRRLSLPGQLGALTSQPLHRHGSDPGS
pIC50: −log10 of the molar value.

# compound, pIC50
rows = [
    ("C[C@@H]1Cc2c(ccc3[nH]ncc23)[C@@H](c2ccc(NC3CN(CCCF)C3)cc2)N1CC(F)(F)F [Example 27]", 5.10),
    ("C[C@@H]1Cc2c(ccc3[nH]ncc23)[C@@H](c2c(F)cc(NC3CN(CCCF)C3)cc2F)N1CC(F)F [Example 49]", 5.09),
    ("C[C@@H]1Cc2c(ccc3[nH]ncc23)[C@@H](c2cnc(NC3CN(CCCF)C3)cn2)N1CC(F)(F)F [Example 42]", 5.10),
    ("COc1cc(NC2CN(CCCF)C2)ccc1[C@@H]1c2ccc3[nH]ncc3c2C[C@@H](C)N1CC(F)(F)F [Example 28]", 5.11),
]

----------
target: recombinant human Estrogen Receptor alpha ligand binding domain (ER alpha-LBD (GST)) (Homo sapiens (Human), UniProt P03372); experiment: ERα binding assay (LanthaScreen TR-FRET competition); settings: TR-FRET, displacement of Fluormone ES2
Sequence (P03372 307-554): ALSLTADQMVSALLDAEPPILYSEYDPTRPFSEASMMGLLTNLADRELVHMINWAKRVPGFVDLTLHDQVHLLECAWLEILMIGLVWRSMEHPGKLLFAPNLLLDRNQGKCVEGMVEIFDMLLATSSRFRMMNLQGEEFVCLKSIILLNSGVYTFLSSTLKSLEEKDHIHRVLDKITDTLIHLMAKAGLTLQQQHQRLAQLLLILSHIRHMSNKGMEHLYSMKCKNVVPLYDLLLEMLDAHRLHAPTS
measured-quantity: IC50 (nM)

# compound, unit-string, recorded-value
data = [
    ("COCC(F)(F)CN1[C@H](c2ccc(NC3CN(CCCF)C3)cc2OC)c2ccc3[nH]ncc3c2C[C@H]1C [Example 1]", "nM", 3.7),
    ("COc1cc(NC2CN(CCCF)C2)ccc1[C@@H]1c2ccc3[nH]ncc3c2C[C@@H](C)N1CC(C)(C)F [Example 64]", "nM", 6.1),
    ("C[C@@H]1Cc2c(ccc3[nH]ncc23)[C@@H](c2cnc(NC3CN(CCCF)C3)cn2)N1CC(F)F [Example 50]", "nM", 2.7),
    ("C[C@@H]1Cc2c(ccc3[nH]ncc23)[C@@H](c2ccc(NC3CN(CCCF)C3)nc2F)N1CC(F)(F)F [Example 40]", "nM", 1.3),
]

----------
Target: Estrogen Receptor (ERα) in MCF-7 cells (Homo sapiens (Human), UniProt P03372)
Sequence (P03372 whole entry): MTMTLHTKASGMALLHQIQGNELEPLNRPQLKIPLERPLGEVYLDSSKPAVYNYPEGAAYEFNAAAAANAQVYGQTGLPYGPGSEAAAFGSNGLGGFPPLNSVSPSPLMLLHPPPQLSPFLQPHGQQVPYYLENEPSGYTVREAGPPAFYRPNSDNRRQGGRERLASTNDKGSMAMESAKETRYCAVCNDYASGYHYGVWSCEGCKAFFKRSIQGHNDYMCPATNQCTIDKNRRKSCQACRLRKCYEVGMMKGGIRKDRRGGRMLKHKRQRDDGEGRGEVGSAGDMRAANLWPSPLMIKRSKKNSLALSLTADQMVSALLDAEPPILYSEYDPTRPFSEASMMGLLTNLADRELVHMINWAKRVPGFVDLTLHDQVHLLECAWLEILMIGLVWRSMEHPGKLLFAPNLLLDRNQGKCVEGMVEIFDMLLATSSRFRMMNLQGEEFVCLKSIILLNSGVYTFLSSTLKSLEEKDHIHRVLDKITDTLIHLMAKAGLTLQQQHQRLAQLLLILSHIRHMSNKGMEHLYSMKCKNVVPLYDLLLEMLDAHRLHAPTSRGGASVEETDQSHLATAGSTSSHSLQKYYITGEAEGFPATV
Experiment: MCF-7 ER down-regulation assay (immuno-fluorescence)
Type: cell-based
Procedure: The Echo uses acoustic technology to perform direct microplate-to-microplate transfers of DMSO compound solutions to assay plates. […] Cells were fixed at room temperature for 20 mins before being washed two times with 250 μL PBS/Proclin (PBS with a Biocide preservative) using a BioTek platewasher, 40 μL of PBS/Proclin was then added to all wells and the plates stored at 4° C. The fixing method described above was carried out on the Integrated Echo 2 workcell. […]
The entries below come with measured IC50 values attached.

# compound-smiles, assayed-target, unit-string, limit-sign, IC50
data = [
    ("COc1cc(NC2CN(CCCF)C2)ccc1[C@@H]1c2ccc3[nH]ncc3c2C[C@@H](C)N1CC(F)(F)F", "Estrogen Receptor (ERα) in MCF-7 cells (Homo sapiens (Human), UniProt P03372)", "nM", "=", 0.065),
    ("C[C@@H]1Cc2c(ccc3[nH]ncc23)[C@@H](c2ccc(N(C)C3CN(CCCF)C3)cn2)N1CC(F)(F)F", "Estrogen Receptor (ERα) in MCF-7 cells (Homo sapiens (Human), UniProt P03372)", "nM", "=", 0.22),
    ("COc1cc(NC2CN(CCCF)C2)ccc1[C@@H]1c2ccc3[nH]ncc3c2C[C@@H](C)N1CC1(CF)COC1", "Estrogen Receptor (ERα) in MCF-7 cells (Homo sapiens (Human), UniProt P03372)", "nM", "=", 0.26),
    ("C[C@@H]1Cc2c(ccc3[nH]ncc23)[C@@H](c2ccc(NC3CN(CCCF)C3)cc2)N1CC(F)(F)F", "Estrogen Receptor (ERα) in MCF-7 cells (Homo sapiens (Human), UniProt P03372)", "nM", "=", 0.05),
    ("C[C@@H]1Cc2c(ccc3[nH]ncc23)[C@@H](c2cnc(NC3CN(CCCF)C3)cn2)N1CC(F)(F)F", "Estrogen Receptor (ERα) in MCF-7 cells (Homo sapiens (Human), UniProt P03372)", "nM", "=", 0.28),
    ("COc1cc(NC2CN(CCCF)C2)ncc1[C@@H]1c2ccc3[nH]ncc3c2C[C@@H](C)N1CC1(F)CC1", "Estrogen Receptor (ERα) in MCF-7 cells (Homo sapiens (Human), UniProt P03372)", "nM", ">", 300),
    ("COc1cc(OC2CN(CCCF)C2)ccc1[C@@H]1c2ccc3[nH]ncc3c2C[C@@H](C)N1CC1(F)CC1", "Estrogen Receptor (ERα) in MCF-7 cells (Homo sapiens (Human), UniProt P03372)", "nM", "=", 0.4),
    ("C[C@@H]1Cc2c(ccc3[nH]ncc23)[C@@H](c2ccc(N(C)C3CN(CCCF)C3)cn2)N1CC1(F)CC1", "Estrogen Receptor (ERα) in MCF-7 cells (Homo sapiens (Human), UniProt P03372)", "nM", "=", 0.36),
    ("C[C@@H]1Cc2c(ccc3[nH]ncc23)[C@@H](c2c(F)cc(NC3CN(CCCF)C3)cc2F)N1CC1(F)CC1", "Estrogen Receptor (ERα) in MCF-7 cells (Homo sapiens (Human), UniProt P03372)", "nM", "=", 0.094),
    ("COc1cc(NC2CN(CCCF)C2)ccc1[C@@H]1c2ccc3[nH]ncc3c2C[C@@H](C)N1CC(C)(C)F", "Estrogen Receptor (ERα) in MCF-7 cells (Homo sapiens (Human), UniProt P03372)", "nM", "=", 0.22),
    ("C[C@@H]1Cc2c(ccc3[nH]nc(F)c23)[C@@H](c2cnc(NC3CN(CCCF)C3)cn2)N1CC(F)(F)F", "Estrogen Receptor (ERα) in MCF-7 cells (Homo sapiens (Human), UniProt P03372)", "nM", "=", 0.19),
    ("COc1cc(NC2CN(CCCF)C2)ccc1[C@@H]1c2ccc3[nH]ncc3c2C[C@@H](C)N1CC(F)(F)CO", "Estrogen Receptor (ERα) in MCF-7 cells (Homo sapiens (Human), UniProt P03372)", "nM", "=", 0.19),
    ("C[C@@H]1Cc2c(ccc3[nH]nc(F)c23)[C@@H](c2ccc(NC3CN(CCCF)C3)c(F)n2)N1CC(F)(F)CO", "Estrogen Receptor (ERα) in MCF-7 cells (Homo sapiens (Human), UniProt P03372)", "nM", "=", 0.13),
    ("C[C@@H]1Cc2c(ccc3[nH]ncc23)[C@@H](c2ncc(NC3CN(CCCF)C3)cc2F)N1CC1(F)CC1", "Estrogen Receptor (ERα) in MCF-7 cells (Homo sapiens (Human), UniProt P03372)", "nM", "=", 0.42),
    ("COCC(F)(F)CN1[C@H](c2ccc(NC3CN(CCCF)C3)cc2OC)c2ccc3[nH]ncc3c2C[C@H]1C", "Estrogen Receptor (ERα) in MCF-7 cells (Homo sapiens (Human), UniProt P03372)", "nM", "=", 0.1),
]
